# assay_comment: HepG2 cytotoxicity, primary screen, cytotoxicity control for P. falciparum antimalarial project, cell-based, ATP luminescence (AID 2303);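 note: 0% = DMSO wells and 100% = digitonin-killed cells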
# cond: HepG2 viability, 24-48 h, at 10 µM, stronger effect = higher value
readout_name: inhibition (%)
Express the result in % but write the number alone.

[
  {
    "molecule": "Cc1csc2nc(C(C)c3ccc(NC(=O)c4cccs4)cc3)oc(=O)c12 (configuration not stated)",
    "readout_unit": "%",
    "experimental_result": -5
  },
  {
    "molecule": "Fc1ccc2nc(-c3ccc(-c4ccc(CNCCN5CCNCC5)cc4)s3)[nH]c2c1",
    "readout_unit": "%",
    "experimental_result": 24
  },
  {
    "molecule": "Cc1ccc2[nH]c(-c3ccccc3N)cc2c1",
    "readout_unit": "%",
    "experimental_result": 11
  },
  {
    "molecule": "O=C(NC(=O)c1ccccc1)NC1CCN(c2ccnc3cc(Cl)ccc23)C1 (configuration not stated)",
    "readout_unit": "%",
    "experimental_result": 32
  },
  {
    "molecule": "O=C(NCCN1CCCCC1)c1ccc(Nc2nccc(Nc3ccc(Oc4ccccc4)cc3)n2)cc1",
    "readout_unit": "%",
    "experimental_result": 58
  }
]

// query Please give measured inhibition of the following entry: CCCCCCCCCN(CCC)C(=O)[C@@H]1OC(C(=O)OC(c2ccccc2)c2ccccc2)=C[C@H](NC(=O)OC(C)(C)C)[C@H]1NC(C)=O
// result 0

// query Please give measured inhibition of the following entry: O[C@@H](c1ccccc1)[C@@H]1CN(Cc2ccccc2)CC[C@@]1(O)c1ccccc1
// result 4

// query Please give measured inhibition of the following entry: COc1cc2c(cc1OC)CN(c1cc(N)c3cc(OC)c(OC)cc3n1)CC2
// result 23

// query Please give measured inhibition of the following entry: Cc1ccn2c(N(Cc3ccccc3)C(=O)c3ccc(Cl)c(Cl)c3)c(-c3ccccc3)nc2c1
// result -20

----------
Reported normalised cell number values for a set of compounds
# assay_comment: differential killing of epithelial or mesenchymal cells, primary screen, imaging, PC-3E GFP, TEM4-18 mCherry, co-culture (AID 1345086);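 note: cells exposed to compound for 72 h before imaging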
# cond: imaging cell counts, measured here: mesenchymal TEM4-18 mCherry cell survival, at 1 µM

[
  {
    "compound": "C[C@]1(Cn2ccnn2)C(C(=O)O)N2C(=O)CC2S1(=O)=O (stereo not given in full)",
    "normalised cell number": 1.19
  },
  {
    "compound": "CN1C2CC(OC(=O)[C@H](CO)c3ccccc3)C[C@H]1[C@H]1OC21 (stereo not given in full)",
    "normalised cell number": 0.84
  },
  {
    "compound": "C[C@]12CCC(=O)C=C1CCC1C2[C@@H](O)C[C@@]2(C)C1CC[C@]2(O)C(=O)COC(=O)CCC(=O)O (stereo not given in full)",
    "normalised cell number": 1.23
  },
  {
    "compound": "Cc1cc2c(CO)cc(O)cc2o1",
    "normalised cell number": 0.92
  },
  {
    "compound": "C[C@H]1[C@H](C)CC[C@]2(C(=O)O)CC[C@]3(C)C(=CCC4[C@@]5(C)C[C@@H](O)[C@H](O)[C@@](C)(CO)C5[C@H](O)C[C@]43C)[C@H]12 (stereo not given in full)",
    "normalised cell number": 1.17
  },
  {
    "compound": "O=C(/C=C/c1ccccc1)O[C@H]1C[C@@H](O)[C@]2(O)C=CO[C@@H](O[C@@H]3O[C@H](CO)[C@@H](O)[C@H](O)[C@H]3O)C12 (stereo not given in full)",
    "normalised cell number": 0.95
  },
  {
    "compound": "NCCC[C@H](N)CC(=O)NC1CNC(=O)[C@H]([C@H]2C[C@H](O)N=C(N)N2)NC(=O)/C(=C/NC(N)=O)NC(=O)[C@H](CO)NC(=O)[C@H](CO)NC1=O (stereo not given in full)",
    "normalised cell number": 1.02
  },
  {
    "compound": "O=C(O)C1CCN(C(=O)OCc2ccccc2)CC1",
    "normalised cell number": 0.94
  }
]

// query Please give measured normalised cell number of the following entry: Cc1nc(COP(=O)(O)O)cc(CN(CCN(CC(=O)O)Cc2cc(COP(=O)(O)O)nc(C)c2[O-])CC(=O)O)c1[O-].[Mn+2]
// result 1.12

// query Please give measured normalised cell number of the following entry: CC(=O)O[C@H]1CCC2(C)C3=C(CCC2C1(C)C)[C@@]1(C)CC[C@@H](C(C)CCC=C(C)C)[C@]1(C)CC3 (stereo not given in full)
// result 0.81

// query Please give measured normalised cell number of the following entry: O=C1/C(=C/c2cccs2)CCC/C1=C\c1cccs1
// result 0.97

// query Please give measured normalised cell number of the following entry: Oc1cc2c(cc1O)C1c3ccc(O)c(O)c3OCC1(O)C2 (stereo not given)
// result 1.18

// query Please give measured normalised cell number of the following entry: O=C(O)C1CSCN1 (stereo not given)
// result 1.1
